- protocol.details: self-splicing fitness, log relative to wild type (ln ratio); higher = more splicing; Tetrahymena group I intron in knt gene, E. coli kanamycin selection, DiMSum; sequences stand for … in CUCUCU…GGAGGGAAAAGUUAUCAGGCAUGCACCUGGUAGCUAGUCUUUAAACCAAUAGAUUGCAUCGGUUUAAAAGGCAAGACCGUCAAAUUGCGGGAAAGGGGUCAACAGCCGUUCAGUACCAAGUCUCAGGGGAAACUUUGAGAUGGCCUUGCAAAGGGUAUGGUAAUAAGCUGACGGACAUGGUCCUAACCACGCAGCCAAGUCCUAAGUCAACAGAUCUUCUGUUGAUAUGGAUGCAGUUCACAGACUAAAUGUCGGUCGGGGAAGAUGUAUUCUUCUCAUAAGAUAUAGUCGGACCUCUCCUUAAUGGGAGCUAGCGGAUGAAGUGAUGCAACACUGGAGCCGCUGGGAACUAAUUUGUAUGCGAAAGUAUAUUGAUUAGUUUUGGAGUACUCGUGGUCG;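 also: selection with 25 µg/mL kanamycin versus none on LB agar overnight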
- condition.description: 30 °C
Lab note: compare self-splicing fitness (ln) against -3. Equal or greater, write Criterion met. Smaller, write Criterion not met.

>>> print(df.to_string())
          sequence_text  category_label
0  GGCCAGCAAUAUUACGCUUC   Criterion met
1  UAAAAGCAAUAUUACGUUUA   Criterion met

Now consider the entry below.
Would you say `UACAAGCAAUAUUACGUCAA` shows self-splicing fitness (ln) at minimum -3?
Criterion not met
